This collection of values is drawn from ChEMBL document CHEMBL1201862.

- system: UniProtKB Q6QLK5
- Sequence (Q6QLK5 whole entry, the tested form may be a part): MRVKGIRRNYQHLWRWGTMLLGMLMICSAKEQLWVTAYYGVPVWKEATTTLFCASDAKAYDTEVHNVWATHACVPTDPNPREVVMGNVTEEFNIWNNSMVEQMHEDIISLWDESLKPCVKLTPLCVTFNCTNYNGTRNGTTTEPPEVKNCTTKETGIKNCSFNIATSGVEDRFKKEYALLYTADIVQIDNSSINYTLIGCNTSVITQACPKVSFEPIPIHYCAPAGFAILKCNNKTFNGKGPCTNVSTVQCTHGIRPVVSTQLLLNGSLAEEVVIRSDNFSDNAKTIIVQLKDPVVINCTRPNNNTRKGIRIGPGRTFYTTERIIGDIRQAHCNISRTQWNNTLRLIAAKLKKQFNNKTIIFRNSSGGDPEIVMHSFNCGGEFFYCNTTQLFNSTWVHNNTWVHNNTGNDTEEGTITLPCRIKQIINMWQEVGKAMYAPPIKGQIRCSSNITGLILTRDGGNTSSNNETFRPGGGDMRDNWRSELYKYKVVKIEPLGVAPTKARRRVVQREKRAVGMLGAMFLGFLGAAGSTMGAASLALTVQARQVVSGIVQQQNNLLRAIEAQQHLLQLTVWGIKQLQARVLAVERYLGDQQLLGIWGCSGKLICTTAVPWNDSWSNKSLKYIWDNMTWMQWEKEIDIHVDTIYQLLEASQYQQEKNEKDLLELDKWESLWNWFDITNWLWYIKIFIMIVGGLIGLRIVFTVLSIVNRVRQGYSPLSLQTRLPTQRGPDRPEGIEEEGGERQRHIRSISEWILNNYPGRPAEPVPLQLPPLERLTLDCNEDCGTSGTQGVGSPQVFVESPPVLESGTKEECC
- experimentDescription: cell-free HIV fusion peptide-binding blockers – biochemical, uHTS, fluorescence dequenching, […] (AID 1986)
Activity calls are given as the source filed them. No stated cut-off is given here; in the data, actives have a measured IC50 and inactives only a lower limit.
Listed molecules paired with reported IC50
measuredAttribute: IC50

{"molecule": "CCCCCC(=O)Cc1cc(O)cc2c1C(=O)Oc1cc(O)c(C(=O)O)c(CCCCC)c1O2 [PHYSODIC ACID]", "measuredAttribute": "IC50", "result": "4.1 µM (active)"}
{"molecule": "O=C(O)CN1C(=O)/C(=C\\c2cc(Br)ccc2OCc2ccc(Cl)cc2Cl)SC1=S", "measuredAttribute": "IC50", "result": "13.1 µM (active)"}
{"molecule": "CC(C)(C)c1ccc(OCC(=O)NNC(=S)NC(=O)c2ccccc2[N+](=O)[O-])c(Br)c1", "measuredAttribute": "IC50", "result": "28.7 µM (active)"}
{"molecule": "NS(=O)(=O)c1cc(C(=O)NC2CCSc3ccccc32)ccc1Cl (centres undefined)", "measuredAttribute": "IC50", "result": "8.22 µM (active)"}
